- Tested on: human liver microsomes
- assay_overview: in vitro
Marks after values point to notes of the source that are not given here.
parameter: Unbound CLint

>>> recorded_result("CCc1nc(N)nc(N)c1OCCCOc1ccccc1CCC(=O)O.Cl [P218]")
"< 7.95^c µL/min/mg"
>>> recorded_result("CCN(CC)CCCNc1ccnc2cc(Cl)ccc12.Cl.Cl [AQ-13]")
"< 10.6^c µL/min/mg"
>>> recorded_result("Cc1cc(Nc2ccc(C(F)(F)F)nc2)n2nc(C(C)(F)F)nc2n1 [DSM421]")
"< 9.09^c µL/min/mg"
>>> recorded_result("COc1cc2[nH]c(C)c(-c3ccc(Oc4ccc(OC(F)(F)F)cc4)cc3)c(=O)c2cc1Cl [ELQ300]")
"< 3500^c µL/min/mg"
>>> recorded_result("CS(=O)(=O)O.FC1CCN(CCOc2ccc(C3CCC4(CC3)OOC3(OO4)C4CC5CC(C4)CC3C5)cc2)CC1 (centres unmarked) [TDD-E209]")
"85,000 µL/min/mg"
